System: PCSK9 mRNA
Experiment: qRT-PCR of PCSK9 mRNA in primary hepatocytes
Type: cell-based, human
Details: donor 4178, 3 μM, relative to GUSB
test_readout: Primary Hepatocytes 4178 PCSK9 (fold change in mRNA expression)

Here is how some compounds turned out for Primary Hepatocytes 4178 PCSK9 (fold change in mRNA expression).
{"columns": ["compound", "observed_measurement"],
 "data": [
  ["Cc1nc(NC(=O)N2CCC[C@H]2C(N)=O)sc1-c1ccnc(C(C)(C)C(F)(F)F)c1 [Alpelisib (BYL719), Alpelisib]", 0.67],
  ["O=C1OC(COc2ccccc2[N+](=O)[O-])CC1Cc1ccccc1 (centres unmarked) [Compound 3BDO]", 1.01],
  ["Cc1c(Cn2c(C)nc3c(C(=O)O)cc(N4CCOCC4)cc32)cccc1C(F)(F)F [GSK2636771]", 0.59],
  ["COc1ccc(-c2nc(N3CCOCC3)c3sc(CN(C)c4ncc(C(=O)NO)cn4)cc3n2)cn1 [CUDC-907]", 0.83],
  ["Nc1cc(C(F)(F)F)c(-c2cc(N3CCOCC3)nc(N3CCOCC3)n2)cn1 [Buparlisib (BKN120, NVE-BKM120)]", 0.46],
  ["C[C@H](Nc1ncnc2[nH]cnc12)c1nc2ccc(F)cc2c(=O)n1-c1ccccc1 [Acalisib]", 0.99],
  ["Nc1nc2cc(-c3ccc4ncc(C(=O)N5CCOCC5)n4c3)ccc2o1 [MLN1117]", 0.69],
  ["Cc1c(CN2CCN(C(=O)[C@H](C)O)CC2)sc2c(N3CCOCC3)nc(-c3cnc(N)nc3)nc12 [Apitolisib (GDC-0980, RG7422)]", 0.31],
  ["CO[C@H]1CC[C@H](N2C(=O)CNc3ncc(-c4ccc(C(C)(C)O)nc4)nc32)CC1 [CC-223]", 0.72],
  ["C[C@H](Nc1ncnc2[nH]cnc12)c1cc2ccc(F)cc2nc1-c1ccccn1 [AMG319]", 0.74]
]}

I = CCNC(=O)Nc1ccc(-c2nc(N3CCOC[C@@H]3C)c3c(n2)C(C)(C)S(=O)(=O)C3)cc1 [CZ415]
II = CCOC(=O)C1=C(N)Oc2ccc(Cl)cc2C1C(C#N)C(=O)OCC (centres unmarked) [SC79]
(Q) Between these two entries, I and II , state which has the higher Primary Hepatocytes 4178 PCSK9 (fold change in mRNA expression). Identify your pick by its label.
(A) II
(II: 1.11, I: 0.66)

I = CO[C@@H](C)Cn1c(=O)n(C)c2cnc3ccc(-c4cncc(C(C)(C)O)c4)cc3c21 [LY3023414]
II = O=[N+]([O-])c1ccc(Nc2nc(N3CCOCC3)nc(N3CCOCC3)n2)cc1 [MHY1485]
(Q) Please indicate which entry, I or II , has the lower recorded Primary Hepatocytes 4178 PCSK9 (fold change in mRNA expression) value. Identify your pick by its label.
(A) I

I = Cc1cc([C@@H](C)Nc2ccccc2C(=O)O)c2nc(N3CCOCC3)cc(=O)n2c1 [AZD6482]
II = CC(C)n1nc(-c2ccc3oc(N)nc3c2)c2c(N)ncnc21 [INK-128]
(Q) Please indicate which entry, I or II , has the lower recorded Primary Hepatocytes 4178 PCSK9 (fold change in mRNA expression) value. Identify your pick by its label.
(A) I

----------
Tested on: phosphorylated S6 (pS6/S6)
Experiment: Western blot of phosphorylated S6 in human hepatocytes
Format: cell-based
Conditions: human hepatocytes, 3 μM, mTORC1 pathway; time point not stated
test_readout: pS6/S6
No unit in the answer, please; the number alone is enough.

{"columns": ["compound", "pS6/S6"],
 "data": [
  ["COc1cccc2cc(-c3nc([C@H]4CC[C@H](C(=O)O)CC4)n4ncnc(N)c34)[nH]c12 [OSI-027]", 0.06],
  ["CS(=O)(=O)N1CCc2c(-c3cnc(N)nc3)nc(N3CCOCC3)nc21 [CH5132799]", 0.06],
  ["CO[C@H]1C[C@@H]2CC[C@@H](C)[C@@](O)(O2)C(=O)C(=O)N2CCCC[C@H]2C(=O)O[C@H]([C@H](C)C[C@@H]2CC[C@@H](O)[C@H](OC)C2)CC(=O)[C@H](C)/C=C(\\C)[C@@H](O)[C@@H](OC)C(=O)[C@H](C)C[C@H](C)/C=C/C=C/C=C/1C [rapamycin]", 0.07],
  ["COc1ccc(-c2cc3c(C)nc(N)nc3n([C@H]3CC[C@H](OCCO)CC3)c2=O)cn1 [PF-04691502]", 0.06]
]}

Could you now consider this next compound?
Item: Cc1nc(NC(=O)N2CCC[C@H]2C(N)=O)sc1-c1ccnc(C(C)(C)C(F)(F)F)c1 [Alpelisib (BYL719), Alpelisib] | pS6/S6: 1.11

----------
Test system: PNPLA3 mRNA
Assay: qRT-PCR of PNPLA3 mRNA in compound-treated primary human hepatocytes
Settings: donor 4282, 3 μM, relative to GUSB
test_readout: Primary Hepatocytes 4282 PNPLA3 (fold change in mRNA expression)

Here is how some molecules turned out for Primary Hepatocytes 4282 PNPLA3 (fold change in mRNA expression).
{"columns": ["molecule", "observed_measurement"],
 "data": [
  ["Cc1nc(-c2cn3c(n2)-c2ccc(-c4cnn(C(C)(C)C(N)=O)c4)cc2OCC3)n(C(C)C)n1 [GDC-0032]", 0.60],
  ["Cc1nc(NC(=O)N2CCC[C@H]2C(N)=O)sc1-c1ccnc(C(C)(C)C(F)(F)F)c1 [BYL-719]", 0.60],
  ["O=[N+]([O-])c1ccc(Nc2nc(N3CCOCC3)nc(N3CCOCC3)n2)cc1", 1.20],
  ["CO[C@H]1C[C@@H]2CC[C@@H](C)[C@@](O)(O2)C(=O)C(=O)N2CCCC[C@H]2C(=O)O[C@H]([C@H](C)C[C@@H]2CC[C@@H](OCCO)[C@H](OC)C2)CC(=O)[C@H](C)/C=C(\\C)[C@@H](O)[C@@H](OC)C(=O)[C@H](C)C[C@H](C)/C=C/C=C/C=C/1C", 1.00]
]}

1 = COc1ncc(-c2ccc3nccc(-c4ccnnc4)c3c2)cc1NS(=O)(=O)c1ccc(F)cc1F
2 = CC(C)n1nc(-c2ccc3oc(N)nc3c2)c2c(N)ncnc21
(Q) Please indicate which entry, 1 or 2 , has the lower recorded Primary Hepatocytes 4282 PNPLA3 (fold change in mRNA expression) value. Identify your pick by its label.
(A) 1
(1: 0.80, 2: 1.63)

----------
Test system: PNPLA3 mRNA
Test: qRT-PCR of PNPLA3 mRNA in compound-treated primary human hepatocytes
Settings: hepatocytes, 1 uM
Each entry below lists one item and its recorded Relative PINPLA3 mRNA value.
No unit in the answer, please; the number alone is enough.

Here is how some molecules turned out for Relative PINPLA3 mRNA.
{"columns": ["structure_smiles", "test_readout", "observed_measurement"],
 "data": [
  ["CS(=O)(=O)N1CCc2c(-c3cnc(N)nc3)nc(N3CCOCC3)nc21", "Relative PINPLA3 mRNA", 0.743],
  ["Nc1cc(C(F)(F)F)c(-c2cc(N3CCOCC3)nc(N3CCOCC3)n2)cn1", "Relative PINPLA3 mRNA", 0.659],
  ["Nc1cc(C(F)(F)F)c(-c2nc(N3CCOCC3)nc(N3CCOCC3)n2)cn1", "Relative PINPLA3 mRNA", 0.5267],
  ["Cc1c(CN2CCN(C(=O)[C@H](C)O)CC2)sc2c(N3CCOCC3)nc(-c3cnc(N)nc3)nc12", "Relative PINPLA3 mRNA", 0.420],
  ["C=CC(=O)N1C[C@H](COc2nc(Nc3cnn(C)c3)nc3[nH]cc(Cl)c23)[C@@H](OC)C1", "Relative PINPLA3 mRNA", 0.965],
  ["O=C(Nc1nc2cccc(-c3ccc(CN4CCS(=O)(=O)CC4)cc3)n2n1)C1CC1", "Relative PINPLA3 mRNA", 0.781],
  ["COc1ncc(-c2ccc3nccc(-c4ccnnc4)c3c2)cc1NS(=O)(=O)c1ccc(F)cc1F", "Relative PINPLA3 mRNA", 0.395]
]}

Could you now consider this next molecule?
Item: `CN1C/C=C/CCOc2cccc(c2)-c2ccnc(n2)Nc2cccc(c2)C1` | Relative PINPLA3 mRNA: 0.400

----------
Test system: PNPLA3 mRNA
Assay: qRT-PCR of PNPLA3 mRNA in human primary hepatic stellate cells
Assay type: cell-based
Settings: hepatic stellate cells, 1 μM
test_readout: Relative PNPLA3 mRNA levels RQ
No unit in the answer, please; the number alone is enough.

Here is how some compounds turned out for Relative PNPLA3 mRNA levels RQ.
{"columns": ["structure_smiles", "Relative PNPLA3 mRNA levels RQ"],
 "data": [
  ["CNC(=O)Nc1ccc(-c2nc(N3CC4CCC(C3)O4)c3cnn(C4CCC5(CC4)OCCO5)c3n2)cc1", 0.42],
  ["CC(C)n1nc(-c2cc3cc(O)ccc3[nH]2)c2c(N)ncnc21", 0.39],
  ["CCNC(=O)Nc1ccc(-c2nc(N3CCOC[C@@H]3C)c3c(n2)C(C)(C)S(=O)(=O)C3)cc1", 0.31],
  ["CO[C@H]1C[C@@H]2CC[C@@H](C)[C@@](O)(O2)C(=O)C(=O)N2CCCC[C@H]2C(=O)O[C@H]([C@H](C)C[C@@H]2CC[C@@H](OCCO)[C@H](OC)C2)CC(=O)[C@H](C)/C=C(\\C)[C@@H](O)[C@@H](OC)C(=O)[C@H](C)C[C@H](C)/C=C/C=C/C=C/1C", 0.56],
  ["COc1ccc(-c2ccc3c(N4CCOC[C@@H]4C)nc(N4CCOC[C@@H]4C)nc3n2)cc1CO", 0.45]
]}

Could you now consider this next compound?
Item: `CC(C)n1nc(-c2ccc3oc(N)nc3c2)c2c(N)ncnc21` | Relative PNPLA3 mRNA levels RQ: 0.58

These measurements were taken from patent US20220107328A1.
